Catalogue of compounds with associated UI
tested on: Rattus norvegicus; experiment: Gastric toxicity in rat assessed as ulcer index at 0.28 mmol/kg, po; assay type: organism-based; details: in vivo
Number only, please.

Solved cases below.
>>> observed_measurement("NS(=O)(=O)c1ccc(-n2nc(C(=O)Nc3ccc(Cl)cc3)nc2-c2ccccc2)cc1")
0.5
>>> observed_measurement("COC(=O)c1nc(-c2ccccc2)n(-c2ccc(S(N)(=O)=O)cc2)n1")
3

Q: Item Cc1ccc(-c2cc(C(F)(F)F)nn2-c2ccc(S(N)(=O)=O)cc2)cc1 [CELECOXIB] : provide UI
Result: 0.5

Q: Item Cc1ccc(NC(=O)c2nc(-c3ccccc3)n(-c3ccc(S(N)(=O)=O)cc3)n2)cc1 : provide UI
Result: 1

Q: Item COc1ccc2c(c1)c(CC(=O)O)c(C)n2C(=O)c1ccc(Cl)cc1 [INDOMETHACIN] : provide UI
Result: 39

----------
test system: Rattus norvegicus; experiment: Antiinflammatory activity against albino rat assessed as inhibition of carrageenan-induced paw edema at 0.28 mmol/kg, po administered 30 mins prior to carrageenan challenge measured after 5 hrs relative to control; format: functional
Criterion: inhibition in vivo at 280 µmol/kg meeting or surpassing 40%. Met: satisfied. Not met: not satisfied.

See these solved cases before continuing.
>>> label_class("NS(=O)(=O)c1ccc(-n2nc(C(=O)Nc3ccc(Cl)cc3)nc2-c2ccccc2)cc1")
"satisfied"
>>> label_class("NS(=O)(=O)c1ccc(-n2nc(C(=O)NCc3ccccc3)nc2-c2ccccc2)cc1")
"not satisfied"

Q: Is it the case that COc1ccc(NC(=O)c2nc(-c3ccccc3)n(-c3ccc(S(N)(=O)=O)cc3)n2)cc1 has inhibition in vivo at 280 µmol/kg reaching or exceeding 40%?
Result: satisfied

Q: Is it the case that Cc1ccc(NC(=O)c2nc(-c3ccccc3)n(-c3ccc(S(N)(=O)=O)cc3)n2)cc1 has inhibition in vivo at 280 µmol/kg reaching or exceeding 40%?
Result: satisfied

Q: Is it the case that NS(=O)(=O)c1ccc(-n2nc(C(=O)NC3CCCCC3)nc2-c2ccccc2)cc1 has inhibition in vivo at 280 µmol/kg reaching or exceeding 40%?
Result: satisfied

----------
test: Selectivity index, ratio of IC50 for ovine COX1 to IC50 for human recombinant COX2
READOUT_TYPE: Ratio IC50

Solved cases below.
>>> observed_measurement("COc1ccc(NC(=O)c2nc(-c3ccccc3)n(-c3ccc(S(N)(=O)=O)cc3)n2)cc1")
"> 1120"
>>> observed_measurement("NS(=O)(=O)c1ccc(-n2nc(C(=O)NC3CCCCC3)nc2-c2ccccc2)cc1")
"> 1520"
>>> observed_measurement("Cc1ccc(NC(=O)c2nc(-c3ccccc3)n(-c3ccc(S(N)(=O)=O)cc3)n2)cc1")
271
>>> observed_measurement("NS(=O)(=O)c1ccc(-n2nc(C(=O)Nc3nc4ccccc4s3)nc2-c2ccccc2)cc1")
2100
>>> observed_measurement("COc1ccc(NC(=O)c2nc(-c3ccccc3)n(-c3ccc(S(N)(=O)=O)cc3)n2)cc1OC")
266

Q: Item NS(=O)(=O)c1ccc(-n2nc(C(=O)Nc3ccc(Cl)cc3)nc2-c2ccccc2)cc1 : provide Ratio IC50
Result: > 2130

Q: Item NS(=O)(=O)c1ccc(-n2nc(C(=O)NCc3ccccc3)nc2-c2ccccc2)cc1 : provide Ratio IC50
Result: > 588

Q: Item CC(C)NC(=O)c1nc(-c2ccccc2)n(-c2ccc(S(N)(=O)=O)cc2)n1 : provide Ratio IC50
Result: > 62.5

----------
test system: Rattus norvegicus; test: Gastric toxicity in rat assessed as ulcer index at 0.28 mmol/kg, po; type: organism-based; conditions: in vivo
Catalogue of molecules with associated UI
Number only, please.

Solved cases below.
>>> observed_measurement("NS(=O)(=O)c1ccc(-n2nc(C(=O)NCc3ccccc3)nc2-c2ccccc2)cc1")
3
>>> observed_measurement("NS(=O)(=O)c1ccc(-n2nc(C(=O)NC3CCCCC3)nc2-c2ccccc2)cc1")
0
>>> observed_measurement("COc1ccc(NC(=O)c2nc(-c3ccccc3)n(-c3ccc(S(N)(=O)=O)cc3)n2)cc1OC")
0

Moving on to another molecule below.
Q: Item NS(=O)(=O)c1ccc(-n2nc(C(=O)Nc3nc4ccccc4s3)nc2-c2ccccc2)cc1 : provide UI
Result: 1

----------
tested on: Rattus norvegicus; assay: Antiinflammatory activity against albino rat assessed as inhibition of carrageenan-induced paw edema at 0.28 mmol/kg, po administered 30 mins prior to carrageenan challenge measured after 5 hrs relative to control; type: functional
READOUT_TYPE: inhibition in vivo at 280 µmol/kg (%)
Note: unit % is implicit; provide only the numeric part.

Solved cases below.
>>> observed_measurement("NNC(=O)c1nc(-c2ccccc2)n(-c2ccc(S(N)(=O)=O)cc2)n1")
32
>>> observed_measurement("CC(=O)c1ccc(NC(=O)c2nc(-c3ccccc3)n(-c3ccc(S(N)(=O)=O)cc3)n2)cc1")
42
>>> observed_measurement("NS(=O)(=O)c1ccc(-n2nc(C(=O)Nc3nc4ccccc4s3)nc2-c2ccccc2)cc1")
38
>>> observed_measurement("COc1ccc2c(c1)c(CC(=O)O)c(C)n2C(=O)c1ccc(Cl)cc1")
84

Q: Item COC(=O)c1nc(-c2ccccc2)n(-c2ccc(S(N)(=O)=O)cc2)n1 : provide inhibition in vivo at 280 µmol/kg
Result: 46

Q: Item CC(C)NC(=O)c1nc(-c2ccccc2)n(-c2ccc(S(N)(=O)=O)cc2)n1 : provide inhibition in vivo at 280 µmol/kg
Result: 43

Q: Item COc1ccc(NC(=O)c2nc(-c3ccccc3)n(-c3ccc(S(N)(=O)=O)cc3)n2)cc1OC : provide inhibition in vivo at 280 µmol/kg
Result: 60

Q: Item Cc1ccc(-c2cc(C(F)(F)F)nn2-c2ccc(S(N)(=O)=O)cc2)cc1 : provide inhibition in vivo at 280 µmol/kg
Result: 52

Q: Item NC(=O)c1nc(-c2ccccc2)n(-c2ccc(S(N)(=O)=O)cc2)n1 : provide inhibition in vivo at 280 µmol/kg
Result: 42

----------
test system: Rattus norvegicus; assay: Antiinflammatory activity against albino rat assessed as inhibition of carrageenan-induced paw edema at 0.28 mmol/kg, po administered 30 mins prior to carrageenan challenge measured after 3 hrs relative to control; type: functional
Criterion: inhibition in vivo at 280 µmol/kg meeting or surpassing 70%. Met: T. Not met: F.

See these solved cases before continuing.
>>> label_class("NS(=O)(=O)c1ccc(-n2nc(C(=O)NC3CCCCC3)nc2-c2ccccc2)cc1")
"F"
>>> label_class("NC(=O)c1nc(-c2ccccc2)n(-c2ccc(S(N)(=O)=O)cc2)n1")
"F"
>>> label_class("CC(C)NC(=O)c1nc(-c2ccccc2)n(-c2ccc(S(N)(=O)=O)cc2)n1")
"F"
>>> label_class("NS(=O)(=O)c1ccc(-n2nc(C(=O)Nc3nc4ccccc4s3)nc2-c2ccccc2)cc1")
"F"
>>> label_class("NS(=O)(=O)c1ccc(-n2nc(C(=O)NCc3ccccc3)nc2-c2ccccc2)cc1")
"F"

Q: Is it the case that COc1ccc(NC(=O)c2nc(-c3ccccc3)n(-c3ccc(S(N)(=O)=O)cc3)n2)cc1 has inhibition in vivo at 280 µmol/kg reaching or exceeding 70%?
Result: T

Q: Is it the case that Cc1ccc(NC(=O)c2nc(-c3ccccc3)n(-c3ccc(S(N)(=O)=O)cc3)n2)cc1 has inhibition in vivo at 280 µmol/kg reaching or exceeding 70%?
Result: T

Q: Is it the case that NS(=O)(=O)c1ccc(-n2nc(C(=O)Nc3ccc(Cl)cc3)nc2-c2ccccc2)cc1 has inhibition in vivo at 280 µmol/kg reaching or exceeding 70%?
Result: F

Q: Is it the case that NNC(=O)c1nc(-c2ccccc2)n(-c2ccc(S(N)(=O)=O)cc2)n1 has inhibition in vivo at 280 µmol/kg reaching or exceeding 70%?
Result: F

Q: Is it the case that COc1ccc2c(c1)c(CC(=O)O)c(C)n2C(=O)c1ccc(Cl)cc1 has inhibition in vivo at 280 µmol/kg reaching or exceeding 70%?
Result: T

Q: Is it the case that CC(=O)c1ccc(NC(=O)c2nc(-c3ccccc3)n(-c3ccc(S(N)(=O)=O)cc3)n2)cc1 has inhibition in vivo at 280 µmol/kg reaching or exceeding 70%?
Result: T

----------
test system: Rattus norvegicus; test: Antiinflammatory activity against albino rat assessed as inhibition of carrageenan-induced paw edema at 0.28 mmol/kg, po administered 30 mins prior to carrageenan challenge measured after 3 hrs relative to indomethacin; format: functional; design: scale not given: the % may be the effect or the level left
READOUT_TYPE: Activity (%)
Note: unit % is implicit; provide only the numeric part.

Solved cases below.
>>> observed_measurement("Cc1ccc(NC(=O)c2nc(-c3ccccc3)n(-c3ccc(S(N)(=O)=O)cc3)n2)cc1")
96
>>> observed_measurement("NS(=O)(=O)c1ccc(-n2nc(C(=O)NC3CCCCC3)nc2-c2ccccc2)cc1")
82
>>> observed_measurement("NS(=O)(=O)c1ccc(-n2nc(C(=O)Nc3ccc(Cl)cc3)nc2-c2ccccc2)cc1")
85

Moving on to another compound below.
Q: Item NS(=O)(=O)c1ccc(-n2nc(C(=O)Nc3nc4ccccc4s3)nc2-c2ccccc2)cc1 : provide Activity
Result: 68
